All figures here come from patent US8394969B2.

- Target under test: recombinant human AMPK complex 1 (containing α1β1γ1) (Homo sapiens, UniProt Q13131+Q9Y478)
- Sequence (Q13131 whole entry): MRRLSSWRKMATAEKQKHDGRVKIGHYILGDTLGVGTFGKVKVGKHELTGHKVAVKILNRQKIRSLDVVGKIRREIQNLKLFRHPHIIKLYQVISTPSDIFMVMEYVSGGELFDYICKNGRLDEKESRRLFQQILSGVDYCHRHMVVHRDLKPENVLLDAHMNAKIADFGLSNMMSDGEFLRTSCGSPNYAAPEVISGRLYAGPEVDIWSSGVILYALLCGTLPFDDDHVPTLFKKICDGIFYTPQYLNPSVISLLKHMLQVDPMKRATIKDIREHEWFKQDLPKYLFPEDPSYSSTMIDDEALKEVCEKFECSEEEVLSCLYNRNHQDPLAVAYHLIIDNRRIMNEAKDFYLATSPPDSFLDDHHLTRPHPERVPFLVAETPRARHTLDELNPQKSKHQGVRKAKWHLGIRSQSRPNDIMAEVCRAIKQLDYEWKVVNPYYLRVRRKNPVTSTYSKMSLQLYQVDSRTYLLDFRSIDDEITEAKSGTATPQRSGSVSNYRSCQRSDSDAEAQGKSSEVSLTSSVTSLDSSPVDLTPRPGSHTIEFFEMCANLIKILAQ
- Sequence (Q9Y478 whole entry): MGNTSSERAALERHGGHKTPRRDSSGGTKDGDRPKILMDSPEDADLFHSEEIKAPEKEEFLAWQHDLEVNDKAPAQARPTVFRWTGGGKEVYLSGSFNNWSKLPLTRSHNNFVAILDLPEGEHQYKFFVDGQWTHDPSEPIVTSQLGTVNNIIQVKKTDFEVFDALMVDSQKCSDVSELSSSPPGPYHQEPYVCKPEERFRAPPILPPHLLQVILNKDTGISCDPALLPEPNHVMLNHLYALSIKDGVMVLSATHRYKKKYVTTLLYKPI
- Sequence (P54619 whole entry partner): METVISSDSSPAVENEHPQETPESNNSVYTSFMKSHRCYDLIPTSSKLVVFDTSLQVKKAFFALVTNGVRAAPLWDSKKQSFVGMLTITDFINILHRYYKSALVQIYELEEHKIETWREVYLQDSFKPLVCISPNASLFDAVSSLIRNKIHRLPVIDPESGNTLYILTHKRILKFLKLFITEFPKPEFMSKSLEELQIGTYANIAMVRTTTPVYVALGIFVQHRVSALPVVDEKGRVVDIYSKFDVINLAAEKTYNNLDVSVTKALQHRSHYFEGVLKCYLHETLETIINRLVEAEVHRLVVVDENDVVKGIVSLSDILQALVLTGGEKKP
- Assay method text: […] (in vitro AMPK activation assay)
- Type: biochemical
- Condition set: recombinant human AMPK complex 1 (α1β1γ1); basal activity subtracted; read-out: % Maximum AMP Activation of human AMPK Complex 1
Measured attribute: Emax

compound="COC(=O)c1cc(Oc2nc3cc(-c4ccc(-c5ccccc5)cc4)c(Cl)cc3[nH]2)cc(C)c1C [Example 14]" target_under_test="recombinant human AMPK complex 1 (containing α1β1γ1) (Homo sapiens, UniProt Q13131+Q9Y478)" measured_attribute=Emax experimental_value="> 80%"
compound="Cc1ccc(Oc2nc3cc(C#CC4(O)CCCC4)c(Cl)cc3[nH]2)cc1C(=O)O [Example 135]" target_under_test="recombinant human AMPK complex 1 (containing α1β1γ1) (Homo sapiens, UniProt Q13131+Q9Y478)" measured_attribute=Emax experimental_value="> 80%"
compound="Cc1ccc(Oc2nc3cc(-c4ccc(-n5cccn5)cc4)c(Cl)cc3[nH]2)cc1C(=O)O [Example 58]" target_under_test="recombinant human AMPK complex 1 (containing α1β1γ1) (Homo sapiens, UniProt Q13131+Q9Y478)" measured_attribute=Emax experimental_value="> 80%"

----------
# Emax annotations
- Target under test: recombinant human AMPK complex 1 (containing α1β1γ1) (Homo sapiens, UniProt Q13131+Q9Y478)
- Assay method text: […] (in vitro AMPK activation assay)
- Type: biochemical
- Condition set: recombinant human AMPK complex 1 (α1β1γ1); basal activity subtracted; read-out: % Maximum AMP Activation of human AMPK Complex 1
Where a name gives a salt, the structure may show the parent alone.
Measured attribute: Emax

molecule=COC(=O)c1cc(Oc2nc3cc(C#Cc4ccccc4F)c(Cl)cc3[nH]2)ccc1C experimental_value="> 80%"
molecule=COC(=O)c1cc(Oc2nc3cc(C#Cc4cccc(O)c4)c(Cl)cc3[nH]2)ccc1C experimental_value="> 80%"
molecule=Cn1ccc2cc(-c3cc4nc(Oc5ccc(Cl)c(C(=O)O)c5)[nH]c4cc3Cl)ccc21 experimental_value="> 80%"
molecule="Cc1ccc(Oc2nc3cc(-c4ccc(C5CCCC5)cc4)c(Cl)cc3[nH]2)cc1C(=O)O [Example 258, trifluoroacetate]" experimental_value="> 80%"
molecule=Cc1ccc(Oc2nc3cc(-c4ccc(-c5nnn[nH]5)cc4)c(Cl)cc3[nH]2)cc1C(=O)O experimental_value="> 80%"
molecule="O=C(O)C(O)c1ccc(Oc2nc3cc(-c4ccc(-c5ccccc5)cc4)c(Cl)cc3[nH]2)cc1 (stereo not shown)" experimental_value="> 80%"
molecule=Cc1ccc(Oc2nc3cc(-c4ccc(-c5cn[nH]c5)cc4)c(Cl)cc3[nH]2)cc1C(=O)O experimental_value="> 80%"

----------
- Target under test: recombinant human AMPK complex 1 (containing α1β1γ1) (Homo sapiens, UniProt Q13131+Q9Y478)
- Assay method text: […] (in vitro AMPK activation assay)
- Assay type: biochemical
- Condition set: read-out: % Maximum AMP Activation of human AMPK Complex 1, recombinant human AMPK complex 1 (α1β1γ1); basal activity subtracted
Where a name gives a salt, the structure may show the parent alone.
Each entry below lists one item and its recorded Emax value.
Measured attribute: Emax

molecule=Cc1ccc(Oc2nc3cc(-c4ccc(OC(F)(F)F)cc4)c(Cl)cc3[nH]2)cc1C(=O)O experimental_value="> 80%"
molecule=Cc1ccc(Oc2nc3cc(-c4ccccc4C(C)C)c(Cl)cc3[nH]2)cc1C(=O)O experimental_value="> 80%"
molecule=Cc1ccc(Oc2nc3cc(-c4cccc(C(C)C)c4)c(Cl)cc3[nH]2)cc1C(=O)O experimental_value="> 80%"
molecule="O=C(O)Cn1nnnc1Sc1nc2cc(-c3ccc(-c4ccccc4)cc3)c(Cl)cc2[nH]1 [Example 55, ammonium salt]" experimental_value="> 80%"
molecule="O=C(O)c1cccc(Oc2nc3cc(-c4ccc(-c5ccccc5)cc4)c(Cl)cc3[nH]2)c1 [Example 56, ammonium salt]" experimental_value="> 80%"
molecule=CSc1ccc(-c2cc3nc(Oc4ccc(C)c(C(=O)O)c4)[nH]c3cc2Cl)cc1 experimental_value="> 80%"
molecule=Cc1ccc(-c2cc3nc(Oc4ccc(C)c(C(=O)O)c4)[nH]c3cc2Cl)cc1C experimental_value="> 80%"
molecule=CCCCc1ccc(-c2cc3nc(Oc4ccc(C)c(C(=O)O)c4)[nH]c3cc2Cl)cc1 experimental_value="> 80%"
molecule=Cc1ccc(Oc2nc3cc(-c4ccc(C(F)(F)F)cc4)c(Cl)cc3[nH]2)cc1C(=O)O experimental_value="> 80%"
molecule=COc1ccc(-c2cc3nc(Oc4ccc(C)c(C(=O)O)c4)[nH]c3cc2Cl)cc1 experimental_value="> 80%"
molecule=COc1cccc(-c2cc3nc(Oc4ccc(C)c(C(=O)O)c4)[nH]c3cc2Cl)c1 experimental_value="> 80%"
molecule=Cc1ccc(Oc2nc3cc(-c4cccc(N(C)C)c4)c(Cl)cc3[nH]2)cc1C(=O)O experimental_value="> 80%"
molecule=Cc1cc(-c2cc3nc(Oc4ccc(C)c(C(=O)O)c4)[nH]c3cc2Cl)ccc1F experimental_value="> 80%"
